target: SARS-CoV-2 S-protein RBD / ACE2 interaction (UniProt P0DTC2+Q9BYF1); test: biochemical; conditions: EC50 (HTRF), inhibition of binding of S-RBD to ACE2
Counter-ions that a name gives are not always drawn.
measuredProperty: pEC50
Quick note: pEC50 means taking -log10 of the concentration in moles per liter.

{"compound": "N=C(N)c1ccc2cc(OC(=O)c3ccc(N=C(N)N)cc3)ccc2c1 [Nafamostat mesylate, reference compound]", "pEC50": 4.95}

Read the entry COc1ccc2c3ccnc4ccc(=O)n(c2c1)c43 [TS-984, 9-Methoxycanthin-6-one] and write its reported pEC50.
4.44
